Molecular target: Adenosine receptor A1 (Homo sapiens, UniProt P30542)
Sequence (P30542 whole entry): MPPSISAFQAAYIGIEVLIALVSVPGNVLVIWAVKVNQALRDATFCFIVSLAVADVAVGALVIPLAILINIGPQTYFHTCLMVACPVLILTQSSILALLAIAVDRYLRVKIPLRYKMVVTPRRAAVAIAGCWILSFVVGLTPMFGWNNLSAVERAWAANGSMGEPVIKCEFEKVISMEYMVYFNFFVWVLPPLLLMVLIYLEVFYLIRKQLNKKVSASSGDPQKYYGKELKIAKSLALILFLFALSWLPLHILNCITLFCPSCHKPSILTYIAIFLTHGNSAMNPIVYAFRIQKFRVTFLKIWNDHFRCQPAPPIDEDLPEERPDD
Experiment: biochemical
Description: Displacement of [3H]R-PIA from human adenosine A1 receptor expressed in CHO cells
Consider the following molecules; for each one, report its pKi.
The scale used: pKi is minus the common logarithm of the concentration in molar units.

Per the records, this molecule ( CCNC(=O)[C@H]1S[C@@H](n2cnc3c(NCc4cccc(I)c4)ncnc32)[C@H](O)[C@@H]1O ) has pKi equal to 8.27

Per the records, this molecule ( CNc1ncnc2c1ncn2[C@@H]1S[C@H](C(=O)NC2CCC2)[C@@H](O)[C@H]1O ) has pKi equal to 8.20

Per the records, this molecule ( O=C(NC1CCC1)[C@H]1S[C@@H](n2cnc3c(NCc4cccc(I)c4)ncnc32)[C@H](O)[C@@H]1O ) has pKi equal to 7.63

Per the records, this molecule ( CNc1ncnc2c1ncn2[C@@H]1S[C@H](C(=O)NCC2CC2)[C@@H](O)[C@H]1O ) has pKi equal to 7.48

Per the records, this molecule ( CNC(=O)[C@H]1S[C@@H](n2cnc3c(NC)ncnc32)[C@H](O)[C@@H]1O ) has pKi equal to 7.16

Per the records, this molecule ( O=C(NCC1CC1)[C@H]1S[C@@H](n2cnc3c(NCc4cccc(I)c4)ncnc32)[C@H](O)[C@@H]1O ) has pKi equal to 6.80

Per the records, this molecule ( CNc1ncnc2c1ncn2[C@@H]1S[C@H](C(=O)NC2CC2)[C@@H](O)[C@H]1O ) has pKi equal to 8.18

Per the records, this molecule ( CNc1ncnc2c1ncn2[C@@H]1S[C@H](C(=O)NC2CCCC2)[C@@H](O)[C@H]1O ) has pKi equal to 7.31

Per the records, this molecule ( CCNC(=O)[C@H]1S[C@@H](n2cnc3c(NC)ncnc32)[C@H](O)[C@@H]1O ) has pKi equal to 8.32

Per the records, this molecule ( Cc1cccc(CNC(=O)[C@H]2S[C@@H](n3cnc4c(NCc5cccc(I)c5)ncnc43)[C@H](O)[C@@H]2O)c1 ) has pKi equal to 5.39

* * *

Consider the following molecules; for each one, report its Ki.
biological target: Adenosine receptor A2a (Homo sapiens); assay: biochemical
Sequence (P29274 whole entry): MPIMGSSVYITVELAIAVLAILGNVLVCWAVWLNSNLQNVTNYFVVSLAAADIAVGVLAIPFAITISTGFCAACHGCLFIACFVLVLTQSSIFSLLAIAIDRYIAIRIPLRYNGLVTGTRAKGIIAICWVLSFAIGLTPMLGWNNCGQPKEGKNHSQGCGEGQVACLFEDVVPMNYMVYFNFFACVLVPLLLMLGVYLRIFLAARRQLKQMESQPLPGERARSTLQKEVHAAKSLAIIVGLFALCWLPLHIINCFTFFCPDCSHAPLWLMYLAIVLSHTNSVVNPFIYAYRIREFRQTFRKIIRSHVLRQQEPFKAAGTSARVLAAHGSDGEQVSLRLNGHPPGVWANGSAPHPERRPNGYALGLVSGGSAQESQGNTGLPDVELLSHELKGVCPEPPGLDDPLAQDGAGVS
Description: Displacement of [3H]CGS21680 from human adenosine A2A receptor expressed in CHO cells
Quick note: give the figure in nM, leave out the unit.

Per the records, this molecule ( O=C(NCC1CC1)[C@H]1S[C@@H](n2cnc3c(NCc4cccc(I)c4)ncnc32)[C@H](O)[C@@H]1O ) has Ki equal to 1600

Per the records, this molecule ( CNc1ncnc2c1ncn2[C@@H]1S[C@H](C(=O)NC2CC2)[C@@H](O)[C@H]1O ) has Ki equal to 161

Per the records, this molecule ( CNc1ncnc2c1ncn2[C@@H]1S[C@H](C(=O)NC2CCC2)[C@@H](O)[C@H]1O ) has Ki equal to 108

Per the records, this molecule ( CCNC(=O)[C@H]1S[C@@H](n2cnc3c(NCc4cccc(I)c4)ncnc32)[C@H](O)[C@@H]1O ) has Ki equal to 57.6

Per the records, this molecule ( O=C(NC1CC1)[C@H]1S[C@@H](n2cnc3c(NCc4cccc(I)c4)ncnc32)[C@H](O)[C@@H]1O ) has Ki equal to 15.2

Per the records, this molecule ( O=C(NC1CCC1)[C@H]1S[C@@H](n2cnc3c(NCc4cccc(I)c4)ncnc32)[C@H](O)[C@@H]1O ) has Ki equal to 122
